B1: TPR t1 (parent)
chain: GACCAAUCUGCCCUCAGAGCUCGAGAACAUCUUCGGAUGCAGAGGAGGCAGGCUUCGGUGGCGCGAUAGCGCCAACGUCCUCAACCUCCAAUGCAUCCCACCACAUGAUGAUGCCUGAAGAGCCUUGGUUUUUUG

Variants of: B1
protocol: polymerase ribozyme fitness, log enrichment relative to wild type (log ratio); higher = more active; in vitro selection for triplet polymerase activity
Each entry falls into one class according to its polymerase ribozyme fitness (log ratio); the ranges are low-valued: < -5; mid-valued: ≥ -5 and < -2; high-valued: ≥ -2

Bin this entry: C72A C123A
high-valued

Bin this entry: C20A C40G
mid-valued

Bin this entry: C34A G60C A100G
low-valued

Bin this entry: C13U C88A A90C
high-valued

Bin this entry: C82G C94G
mid-valued

Bin this entry: C20G G39A G57A U109A
mid-valued

Bin this entry: C12U G69C
high-valued

Bin this entry: C15U A46C C70G
mid-valued

Bin this entry: U7G G69A C101U
mid-valued

Bin this entry: U33A U87A
mid-valued

Bin this entry: C49G C62A A100U
mid-valued

Bin this entry: C34U U112A G122A
low-valued

Bin this entry: G51C G60C
mid-valued

Bin this entry: C11G U54C G60U C86U
high-valued

Bin this entry: C8U A37C C53U
high-valued

Bin this entry: C56G
high-valued

Bin this entry: G35A G36U U112A
low-valued

Bin this entry: U32G A37U C73U G113A
low-valued

Bin this entry: G10U C34A G44A C72A
low-valued
